# System: BT-549 breast
# Experiment Description: NCI-60 one-dose screen, 48 h
# Measurement Conditions: 10 µM unless noted
About 83,000 compounds went through this panel and 20% of them were active in at least one assay; those are over-represented in the sample as a whole. Calls of active or inactive are those of the source. How the source made its calls: active means growth percent below 10; inactive means the rest.
Answer with one of the outcomes true for active, false for inactive

[in] Called result for Cc1nn(-c2ccccc2)c(N2CCCCC2)c1/C=N/NC(=O)Cn1c(=O)sc2ccccc21
[out] false

[in] Identify the outcome logged in this assay for the molecule shown: CC/C(Cc1ccccc1)=C(\c1ccc(OCCN2CCCCCC2)cc1)c1ccc(OC(=O)NCc2ccccc2)cc1
[out] false

[in] Assay outcome for Cc1nc2sc(C(=O)Nc3cccc(Cl)c3)c(N)c2cc1C(O)c1ccccc1 (stereo unspecified) : what was it?
[out] false

[in] What did the test return for N=C(N)c1ccc(-c2ccc(-c3ccc(Cl)cc3Cl)s2)cc1F ?
[out] false

[in] // return assay outcome for Fc1ccc(CNc2c3ccccc3nc3ccccc23)cc1
[out] false

[in] Please share the test call associated with CC(/C=C1\SC(=S)N(CC(=O)NC(Cc2c[nH]c3ccccc23)C(=O)O)C1=O)=C\c1ccccc1 (stereo unspecified) .
[out] false

[in] # outcome recorded in this test, key = CCCCCCOC(=O)CC1=C(C)/C(=C/c2[nH]c(-c3ccc[nH]3)cc2OC)N=C1C
[out] true

[in] Test call, this molecule: N#Cc1c(NC(=O)c2cccs2)[n+]([O-])c2ccc(Cl)cc2[n+]1[O-]
[out] false

[in] Which outcome did this test record for the molecule Nc1ncnc2c1c(-c1ccc(Oc3ccccc3)cc1)nn2CC1SSCC1O (stereo unspecified) ?
[out] false

[in] Just curious, what result did Cc1cccc(-n2c(C)nc3ccc(N4CCCNC4=O)cc3c2=O)c1 get here?
[out] false

[in] # fetch the recorded call for CC1=C(C(=O)n2c3ccccc3c3ccccc32)C(c2cccc([N+](=O)[O-])c2)C(C(=O)n2c3ccccc3c3ccccc32)=C(C)N1 here
[out] false

###

# System: SW-620 colon
# Experiment Description: NCI-60 one-dose screen, 48 h (100 = growth as untreated, 0 = no growth, -100 = all killed)
# Measurement Conditions: 10 µM unless noted
This is part of a sample that, as a whole, favours compounds with a hit. Of some 83,000 tested, about 20% had one in any assay.
Can you tell me growth for the items I'm about to list?
Note: unit % is implicit; provide only the numeric part.

[in] Kindly indicate its recorded growth. Item: CCNC(=O)Oc1ccc(/C(=C(/C)Cc2ccc(OC)cc2)c2ccc(OCCN3CCCCCC3)cc2)cc1
[out] 70.7

[in] Please give measured growth of the following entry: O=S(=O)(c1ccccc1)N1CCCN(c2nc(-c3ccccc3)nc3nc(-c4ccccc4)oc23)CC1
[out] 109

[in] Note growth for the compound shown: CN1C(=O)N(C)C2C1NC(=S)N2/N=C/C=C/c1ccccc1[N+](=O)[O-] (configuration not stated)
[out] 22.7

[in] Give recorded growth. Cc1cc2nc(-c3c(-c4ccc(F)cc4)nc4sccn34)[nH]c2cc1C
[out] 108

[in] Please give the documented growth of CCSC1=CC(=O)c2ccccc2C1=O
[out] 54.9

[in] Assign growth to the following record: COc1cc2c(c(OC)c1OC)C(=O)CC(c1cccc(NC(=O)c3ccccc3Br)c1)O2 (configuration not stated)
[out] 97.3

[in] Give the reported value of growth for this record: Cc1cccc(-n2c(C)nc3ccc(N4CCCNC4=O)cc3c2=O)c1
[out] 104

[in] Specify growth for C(/C=C/c1ccccc1)=Nc1ccc(CCc2ccc(N=C/C=C/c3ccccc3)cc2)cc1 and stop.
[out] 51.6

[in] Entry COc1cc(C2Cc3ncccc3-c3[nH]c(=O)c4cccnc4c32)cc(OC)c1OC (configuration not stated) needs its growth filled in; supply it.
[out] 26.7

[in] Supply growth value. Item: C=CC1(C)C(O[Si](C)(C)C(C)(C)C)CC2C3OC(=O)NC31c1cccc3c1[C@H](C(=O)N3C)C2(C)C (some centres not stated)
[out] 64.6

[in] Supply recorded growth for COc1ccc(C(c2cc(OC)c(OC)c(OC)c2)N2CCCC2)cc1 (configuration not stated) here.
[out] 47.8

[in] Give the value of growth reported for the following: Oc1c(CN2CCCC2)cc(COCc2ccccc2)c2cccnc12
[out] 22.3

[in] Name the recorded growth of the item CN(CCC#N)c1ccc(/C=C2\NC(=O)NC2=O)cc1 in your answer.
[out] 99.8

[in] For the compound Oc1c(Cl)cc(Cl)c2ccc(Cn3cc(-c4cccc(C(F)(F)F)c4)nn3)nc12 , give its reported growth.
[out] 28.7

[in] Complete the entry with growth for O=C1OCC2=C1C(c1cccc(C(F)(F)F)c1)c1cc3c(cc1N2CCO)OCO3 (configuration not stated)
[out] 23.3

[in] Entry CCOC(=O)c1c(-c2ccc(Cl)cc2)c(C#N)c2c(C#N)c(N)nn2c1N needs its growth filled in; supply it.
[out] 52.6

[in] Name the recorded growth of the item O=C(Nc1ccccc1O)c1ccccc1Nc1ccnc(C(F)(F)F)c1 in your answer.
[out] 102

[in] Supply growth value. Item: O=C1NC(=O)c2c1c1c3ccccc3[nH]c1c1oc3ccc(F)cc3c21
[out] 64.6

[in] Report growth for CCN(C(=O)N1CCN(c2cc3c(cc2F)c(=O)c(C(=O)O)cn3C2CC2)CC1)c1nc(-c2ccc(C)cc2)cs1
[out] 18.5

[in] Quickly give me recorded growth for CC1(C)CCC(S(=O)(=O)c2ccc3c(c2)/C(=N\O)c2cc(S(=O)(=O)N4CCN(c5ccc(F)cc5O)CC4)ccc2-3)CC1
[out] -81.5

[in] For the compound CCCCN1C(=O)/C(=c2\sc3n(c2=O)NC2C(N=3)N(CC)C(=O)N2CC)c2ccccc21 (configuration not stated) , report growth.
[out] 36.2

[in] Recall and state the measured growth for CCOC(=O)Nc1nc2ccc(SCC(C)C)cc2s1 .
[out] 33.8

[in] Please give measured growth of the following entry: COc1ccc2c(c1)c(-c1nonc1-c1c[nH]c3ccc(Br)cc13)cn2C
[out] 33.7

[in] Report growth, nothing else, for this compound: CCCCSCC(=O)c1ccccc1
[out] 105

[in] Specify growth for O=C(/C=C/C12c3ccccc3C(c3ccccc31)C1C(=O)NC(=O)C12)c1ccccn1 (configuration not stated) and stop.
[out] -1.62

[in] Name the recorded growth of the item Cc1cccc(N2CCN(C(=S)c3ccc4c(c3)OCO4)CC2)c1 in your answer.
[out] 8.2

[in] Note down growth recorded for CCCCNC1=C(OCC)C(=O)c2ccccc2C1=O
[out] 104

[in] Give a short answer stating reported growth for c1ccc(CCc2ccccc2-c2cc(-c3ccccc3)on2)cc1 .
[out] 91

[in] Determine its reported growth: CCN(CC)CCCNCc1cc(-c2ccccc2)nc2cc(Cl)ccc12
[out] -0.394

[in] Give reported growth value for N=c1sc(Cc2cc(Cl)ccc2Cl)cn1CC(=O)c1ccccc1
[out] 21.2

[in] Tell us which growth value is on record for Cn1cc(/C=C2/C(=O)Nc3ccccc32)c2ccccc21
[out] 102

[in] For the compound O=C1/C(=C/c2cccc([N+](=O)[O-])c2)COc2ccc(O)cc21 , report growth.
[out] -47.3

[in] Quickly give me recorded growth for COc1ccc(C(c2cc(OC)c(OC)c(OC)c2)N2CCN(Cc3ccccc3)CC2)cc1 (configuration not stated)
[out] 43.6

[in] Specify measured growth for Cc1ccc(-c2csc(NC(=O)N3CCN(c4cc5c(cc4F)c(=O)c(C(=O)O)cn5C4CC4)CC3)n2)cc1 .
[out] 27.2

[in] Please indicate growth recorded for Cc1ccccc1CNc1c2ccccc2nc2ccccc12
[out] 13.8

[in] Give the reported growth for this compound. O=C1Nc2ccc(F)cc2/C1=N/c1nnc(Sc2ccccc2)s1
[out] 91.9

[in] Recall and state the measured growth for CCCCCCCCCCCCCCCCCCOc1ccccc1CC(=O)NCC[N+]1(C)CCOCC1 .
[out] 79.2
